For each of the compounds below, state its Cp.
# PROCEDURE TEXT: Total plasma concentration in Wistar Han rat at 1 to 2 mg/kg, iv infused for 10 to 20 hrs by LC-MS/MS analysis
# CONDITION SET: in vivo

Worked set:
SMILES DATA: Cc1ccc(CC(C)(C)NC[C@@H](O)CO[C@H](C)c2ccccc2-c2ccc(C(=O)O)c(C)c2)cc1F
RESULT: 120 ng/mL
//
SMILES DATA: CCCn1cnc(C[C@H](CCCN)C(=O)O)c1
RESULT: 160 ng/mL
//
SMILES DATA: O=C(NC1CCCC1)C1CCN(c2nc3cc(Cl)ccc3o2)CC1
RESULT: 310 ng/mL
//
SMILES DATA: CO[C@@H]1C[C@H](C(=O)Nc2ccc(-n3cc(Cl)ccc3=O)cc2F)N(C(=O)Nc2ccc(Cl)cc2)C1
RESULT: 120 ng/mL
//
SMILES DATA: Cn1nc(C(=O)NCCN2CCOCC2)cc1-c1cc2ccccc2[nH]1
RESULT: 29 ng/mL

Look up Cp for the entries below, preserving their order.
1. O=C(O)[C@@H]1CCN(C(=O)n2cnc(-c3ccc(-c4cnc(N5CCOCC5)nc4)cc3)n2)[C@@H](c2ccccc2)C1
2. Cc1ccc(NC(=O)c2cc(Oc3ccc(S(C)(=O)=O)cc3)c3c(c2)OC(C)(C)C3)nc1

Found:
1: 88 ng/mL; 2: 68 ng/mL

* * *

For each of the compounds below, state its log10 of Ct.
# PROCEDURE TEXT: Drug concentration in total white adipose tissue in Wistar Han rat at 1 to 2 mg/kg, iv infused for 10 to 20 hrs by LC-MS/MS analysis
# CONDITION SET: in vivo
// units: ng/mL (pre-log); metric: Ct; scale: log10

SMILES DATA: NC(=O)c1c(-c2ccc(Oc3ccc(Cl)cc3)cc2)nn([C@@H]2CCCN(C(=O)/C=C/CO)C2)c1N
MEASURE: log10 of Ct
RESULT: 1.32
//
SMILES DATA: Oc1noc2cc(Cl)c(Cl)cc12
MEASURE: log10 of Ct
RESULT: 1.46
//
SMILES DATA: O=c1[nH]c(=S)n(CCO)c2cc[nH]c12
MEASURE: log10 of Ct
RESULT: -0.07

Look up log10 of Ct for the entries below, preserving their order.
1. O=C(NC1CC1)c1nc2cccnn2c1-c1ccc2ncnn2c1
2. COc1ccc(-c2cc3c(S(=O)(=O)O)c[nH]c3cc2Cl)cc1
3. Cc1c(C(=O)O)cnn1-c1nc(-c2cccc(C(F)(F)F)c2)cs1
4. O=C(O)[C@@H]1CCN(C(=O)n2cnc(-c3ccc(-c4cnc(N5CCOCC5)nc4)cc3)n2)[C@@H](c2ccccc2)C1
5. O=C(O)C(=O)Nc1ccc(NC(=O)[C@H](CC2CCCC2)n2cnc(C(F)(F)F)c2)nc1

Found:
[1.46, 1.18, 1.11, -0.11, -0.11]

Look up log10 of Ct for the entries below, preserving their order.
1. Cc1ccc(NC(=O)N2CCN(Cc3sc4ccccc4c3C)CC2)nc1
2. CC(C)(O)CS(=O)(=O)c1ccc2c(c1)nc(C(C)(C)C)n2CC1CCOCC1
3. CC(C)C[C@H](Nc1ccc(C(=O)NCCC(=O)O)cn1)c1ccc(-c2ccc(C(F)(F)F)cn2)cc1
4. Cn1ncc(-c2ccc(C(=O)N(c3ncccc3Cl)[C@@H]3CCCNC3)cc2)c1C(=O)O
5. COc1ccc(Cc2cc([C@@H]3OC4(COC4)[C@@H](O)[C@H](O)[C@H]3O)ccc2C)cc1

Found:
1: 2.38; 2: 1.74; 3: -0.11; 4: 0.73; 5: 1.30

Look up log10 of Ct for the entries below, preserving their order.
1. Cc1nc([C@@H]2CCOC2)c2c(N3CCc4c(c(C5CC5)nn4C)C3)ncnn12
2. Cn1nc(C(=O)NCCN2CCOCC2)cc1-c1cc2ccccc2[nH]1

Found:
[2.43, 1.46]

Look up log10 of Ct for the entries below, preserving their order.
1. CCCn1cnc(C[C@H](CCCN)C(=O)O)c1
2. COc1cc(/C=C2\CCCN([C@@H](C)c3ccc(F)cc3)C2=O)ccc1-n1cnc(C)c1
3. CS(=O)(=O)c1cccc(C(=O)O)c1

Found:
1.48
3.26
-0.11

Lookup: I would be grateful if you could share the reported log10 of Ct for CC1(C)CN(CCC#N)C(=O)[C@@H]1Oc1ccc(C#N)c(C(F)(F)F)c1 .
Found: 2.40

Just for reference, ChEMBL document CHEMBL4373746 is where these values come from.
